SYSTEM_UNDER_TEST: DNA topoisomerase 2-alpha (Homo sapiens, UniProt P11388)
Sequence (P11388 whole entry): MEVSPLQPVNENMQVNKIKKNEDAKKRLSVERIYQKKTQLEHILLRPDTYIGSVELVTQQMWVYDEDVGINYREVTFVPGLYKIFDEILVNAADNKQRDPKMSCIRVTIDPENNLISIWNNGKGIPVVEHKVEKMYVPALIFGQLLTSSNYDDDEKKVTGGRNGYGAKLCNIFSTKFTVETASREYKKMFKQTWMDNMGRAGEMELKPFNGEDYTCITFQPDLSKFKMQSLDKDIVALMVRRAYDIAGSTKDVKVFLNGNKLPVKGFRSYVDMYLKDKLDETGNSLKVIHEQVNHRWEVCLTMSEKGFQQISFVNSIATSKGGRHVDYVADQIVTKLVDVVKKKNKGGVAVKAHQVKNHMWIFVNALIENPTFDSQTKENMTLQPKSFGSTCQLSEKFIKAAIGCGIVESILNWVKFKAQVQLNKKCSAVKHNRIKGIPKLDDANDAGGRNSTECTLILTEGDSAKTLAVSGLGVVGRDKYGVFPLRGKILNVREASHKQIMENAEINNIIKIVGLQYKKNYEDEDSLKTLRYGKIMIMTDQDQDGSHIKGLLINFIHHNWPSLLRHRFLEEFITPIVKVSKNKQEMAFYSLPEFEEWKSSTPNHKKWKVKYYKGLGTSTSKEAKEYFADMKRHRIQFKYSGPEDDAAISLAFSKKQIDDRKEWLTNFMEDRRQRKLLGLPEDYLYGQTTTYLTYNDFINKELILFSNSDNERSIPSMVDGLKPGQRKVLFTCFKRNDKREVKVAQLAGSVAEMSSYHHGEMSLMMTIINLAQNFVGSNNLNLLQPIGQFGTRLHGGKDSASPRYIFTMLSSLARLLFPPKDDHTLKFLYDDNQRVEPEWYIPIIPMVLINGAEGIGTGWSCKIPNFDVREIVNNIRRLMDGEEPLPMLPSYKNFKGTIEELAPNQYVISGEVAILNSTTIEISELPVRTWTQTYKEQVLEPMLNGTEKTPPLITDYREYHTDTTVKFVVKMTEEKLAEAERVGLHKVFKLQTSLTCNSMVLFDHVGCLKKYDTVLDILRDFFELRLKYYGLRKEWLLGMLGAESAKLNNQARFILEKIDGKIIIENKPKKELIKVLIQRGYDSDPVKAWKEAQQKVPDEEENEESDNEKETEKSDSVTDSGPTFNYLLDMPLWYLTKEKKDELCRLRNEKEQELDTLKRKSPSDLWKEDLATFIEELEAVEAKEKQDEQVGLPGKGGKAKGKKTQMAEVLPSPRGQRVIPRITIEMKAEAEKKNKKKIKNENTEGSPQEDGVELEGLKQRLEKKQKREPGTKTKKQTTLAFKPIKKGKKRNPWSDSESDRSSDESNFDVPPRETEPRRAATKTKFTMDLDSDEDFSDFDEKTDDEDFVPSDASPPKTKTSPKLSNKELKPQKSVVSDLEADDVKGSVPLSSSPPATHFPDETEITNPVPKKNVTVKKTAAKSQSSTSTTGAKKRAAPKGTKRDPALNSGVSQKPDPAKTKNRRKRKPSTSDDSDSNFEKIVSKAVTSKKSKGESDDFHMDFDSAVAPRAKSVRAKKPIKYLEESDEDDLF
METHOD_SUMMARY: Inhibition of human DNA topoisomerase 2 alpha assessed as relaxation of supercoiled plasmid pNO1 DNA incubated for 30 mins by fluorescence based analysis
pIC50: −log10 of the molar value.
Give measured pIC50 for each item. Keep answers brief.

Recorded results for 4 molecules are shown here.
COMPOUND_SMILES | SYSTEM_UNDER_TEST | pIC50
NCCNC(=O)c1cccc(COc2ccccc2NC(=O)c2cc([N+](=O)[O-])c[nH]2)c1 | DNA topoisomerase 2-alpha (Homo sapiens, UniProt P11388) | < 4.00
Cc1[nH]c(C(=O)Nc2cc(C(=O)O)ccc2OC2CCNCC2)c(Cl)c1Cl | DNA topoisomerase 2-alpha (Homo sapiens, UniProt P11388) | < 4.00
Cc1ccc(C(=O)Nc2ccccc2OCc2cccc(C(=O)NCCN)c2)[nH]1 | DNA topoisomerase 2-alpha (Homo sapiens, UniProt P11388) | < 4.00
Cc1[nH]c(C(=O)Nc2ccccc2OC2CCN(C(=O)OC(C)(C)C)CC2)c(Cl)c1Cl | DNA topoisomerase 2-alpha (Homo sapiens, UniProt P11388) | < 4.00

# return pIC50 for each item in the list
1. Cc1[nH]c(C(=O)Nc2ccc(C(N)=O)cc2OCc2cccc(C(=O)NCC(=O)O)c2)c(Cl)c1Cl
2. Cc1[nH]c(C(=O)Nc2ccc(C(N)=O)cc2OCc2cccc(C(=O)NCCN)c2)c(Cl)c1Cl.Cl
3. NS(=O)(=O)c1ccc(CNC(=O)c2cc(O)ccc2NC(=O)c2cc(Br)c(Br)[nH]2)cc1
4. Cc1[nH]c(C(=O)Nc2cc(C(N)=O)ccc2OCCN)c(Cl)c1Cl
5. Cc1[nH]c(C(=O)Nc2ccccc2OCc2cccc(C(=O)NCCN)c2)cc1F
6. CCc1[nH]c(C(=O)Nc2ccc(C(N)=O)cc2OC(C)C)nc1Cl
7. Cc1[nH]c(C(=O)Nc2ccc(O)cc2C(=O)NCc2ccc(C(=O)O)cc2)c(Cl)c1Cl

[5.46, 6.00, "< 4.00", 4.74, "< 4.00", 5.18, 4.62]

# return pIC50 for each item in the list
1. Cc1[nH]c(C(=O)Nc2ccccc2OCc2cccc(C(N)=O)c2)c(Cl)c1Cl
2. Cc1[nH]c(C(=O)Nc2ccc(C(=O)N3CCNCC3)cc2OC(C)C)c(Cl)c1Cl

1: < 4.00; 2: < 4.00
